Source of measurements: patent US10028960B2

Target: JAK3 (Homo sapiens (Human))
Sequence (P52333 whole entry): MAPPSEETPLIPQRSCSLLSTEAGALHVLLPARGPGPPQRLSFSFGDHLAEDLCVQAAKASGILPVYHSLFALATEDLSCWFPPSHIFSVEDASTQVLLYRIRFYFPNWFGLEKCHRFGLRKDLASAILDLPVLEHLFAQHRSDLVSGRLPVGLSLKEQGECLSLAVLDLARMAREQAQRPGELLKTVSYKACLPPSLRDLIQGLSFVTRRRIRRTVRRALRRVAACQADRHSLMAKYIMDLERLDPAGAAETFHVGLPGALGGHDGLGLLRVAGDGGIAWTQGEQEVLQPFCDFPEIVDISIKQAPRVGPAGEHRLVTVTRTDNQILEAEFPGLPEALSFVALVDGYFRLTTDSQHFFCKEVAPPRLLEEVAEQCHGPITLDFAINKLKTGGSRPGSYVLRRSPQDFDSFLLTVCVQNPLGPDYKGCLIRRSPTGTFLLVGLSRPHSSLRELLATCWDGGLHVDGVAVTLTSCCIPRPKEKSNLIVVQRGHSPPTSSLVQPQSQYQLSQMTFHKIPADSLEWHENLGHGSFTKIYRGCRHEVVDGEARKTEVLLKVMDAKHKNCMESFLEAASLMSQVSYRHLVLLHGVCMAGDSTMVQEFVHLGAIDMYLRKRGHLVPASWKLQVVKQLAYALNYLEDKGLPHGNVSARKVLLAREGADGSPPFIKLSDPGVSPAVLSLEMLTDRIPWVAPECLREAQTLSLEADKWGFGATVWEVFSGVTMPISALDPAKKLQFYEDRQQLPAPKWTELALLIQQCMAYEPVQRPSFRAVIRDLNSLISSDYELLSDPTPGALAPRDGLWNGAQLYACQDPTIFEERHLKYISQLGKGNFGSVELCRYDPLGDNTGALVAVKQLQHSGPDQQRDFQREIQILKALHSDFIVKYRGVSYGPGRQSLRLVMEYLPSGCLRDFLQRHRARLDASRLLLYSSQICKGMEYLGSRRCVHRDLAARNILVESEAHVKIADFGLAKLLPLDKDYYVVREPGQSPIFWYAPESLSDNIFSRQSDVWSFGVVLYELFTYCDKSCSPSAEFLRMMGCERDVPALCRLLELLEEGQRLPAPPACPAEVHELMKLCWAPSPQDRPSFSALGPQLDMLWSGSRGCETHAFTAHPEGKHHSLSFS
Assay: LanthaScreen JAK biochemical assay, JAK3
Conditions: read-out: JAK 3 (pKi) (converted)
ASSAY METRIC: Ki

[[record]]
input_smiles = "COc1cc(Nc2cc(CO)[nH]n2)nc(N(C)[C@@H]2C[C@H]3CCC[C@@H](C2)N3Cc2cncc(C#N)c2)n1"
recorded_measurement = "0.1 to 1 nM"

[[record]]
input_smiles = "COc1cc(Nc2cc(CO)[nH]n2)nc(N(C)[C@@H]2C[C@H]3CCC[C@@H](C2)N3S(=O)(=O)N2CC(C#N)C2)n1"
recorded_measurement = "0.1 to 1 nM"

[[record]]
input_smiles = "COc1cc(Nc2cc(CO)[nH]n2)nc(N(C)[C@@H]2C[C@H]3CCC[C@@H](C2)N3C(=O)C(F)F)n1"
recorded_measurement = "10 to 31.6 nM"


###

Experiment: in vivo
Settings: Sprague Dawley, rat, po, 5 mg/kg
ASSAY METRIC: Kp

[[record]]
compound = "COc1cc(Nc2cc(CO)[nH]n2)nc(N(C)[C@@H]2C[C@H]3CCC[C@@H](C2)N3S(=O)(=O)N2CC(C#N)C2)n1 [Example 2]"
recorded_measurement = "> 250"


###

Target: Tyk2 (Homo sapiens (Human), UniProt P29597)
Sequence (P29597 whole entry): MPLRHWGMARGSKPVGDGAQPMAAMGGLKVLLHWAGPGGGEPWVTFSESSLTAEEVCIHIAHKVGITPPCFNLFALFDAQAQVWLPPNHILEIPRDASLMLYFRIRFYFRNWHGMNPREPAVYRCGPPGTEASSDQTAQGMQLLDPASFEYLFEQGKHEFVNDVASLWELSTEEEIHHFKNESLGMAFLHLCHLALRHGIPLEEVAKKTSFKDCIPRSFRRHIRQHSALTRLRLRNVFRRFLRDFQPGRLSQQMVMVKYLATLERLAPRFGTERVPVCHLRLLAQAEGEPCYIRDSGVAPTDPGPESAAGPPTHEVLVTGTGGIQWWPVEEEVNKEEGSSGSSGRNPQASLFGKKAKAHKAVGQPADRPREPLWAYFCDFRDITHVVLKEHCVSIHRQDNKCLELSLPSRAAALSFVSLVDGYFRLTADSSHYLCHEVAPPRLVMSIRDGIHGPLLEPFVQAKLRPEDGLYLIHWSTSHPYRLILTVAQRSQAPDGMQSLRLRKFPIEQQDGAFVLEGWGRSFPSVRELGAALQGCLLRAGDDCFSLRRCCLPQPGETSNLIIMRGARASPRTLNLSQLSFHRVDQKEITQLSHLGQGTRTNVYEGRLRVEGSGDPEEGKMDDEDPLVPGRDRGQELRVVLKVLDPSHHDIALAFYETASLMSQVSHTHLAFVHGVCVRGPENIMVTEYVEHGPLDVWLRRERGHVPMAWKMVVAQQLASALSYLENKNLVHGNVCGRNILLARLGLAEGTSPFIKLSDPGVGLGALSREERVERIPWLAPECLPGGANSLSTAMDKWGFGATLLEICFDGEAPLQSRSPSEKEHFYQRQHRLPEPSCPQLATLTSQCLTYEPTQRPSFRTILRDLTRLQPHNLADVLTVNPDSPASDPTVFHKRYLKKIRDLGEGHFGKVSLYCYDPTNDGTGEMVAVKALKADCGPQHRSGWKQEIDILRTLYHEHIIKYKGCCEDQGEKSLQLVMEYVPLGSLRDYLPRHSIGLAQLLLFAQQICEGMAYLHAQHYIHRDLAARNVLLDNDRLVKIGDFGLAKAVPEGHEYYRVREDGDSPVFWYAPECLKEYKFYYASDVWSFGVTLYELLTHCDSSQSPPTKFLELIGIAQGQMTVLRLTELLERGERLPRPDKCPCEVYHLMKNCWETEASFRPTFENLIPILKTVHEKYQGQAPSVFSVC
Assay: LanthaScreen JAK biochemical assay, Tyk2
pKi: −log10 of the molar value.
ASSAY METRIC: pKi

[[record]]
input_smiles = "COc1cc(Nc2cc(CO)[nH]n2)nc(N(C)[C@@H]2C[C@H]3CCC[C@@H](C2)N3S(=O)(=O)N2CC(C#N)C2)n1"
experimental_system = "Tyk2 (Homo sapiens (Human), UniProt P29597)"
recorded_measurement = "9.00 to 10.00"

